Data provenance: patent US10513521B2

# experimental_target: ALK3 (Homo sapiens, UniProt P36894)
# Sequence (P36894 24-532): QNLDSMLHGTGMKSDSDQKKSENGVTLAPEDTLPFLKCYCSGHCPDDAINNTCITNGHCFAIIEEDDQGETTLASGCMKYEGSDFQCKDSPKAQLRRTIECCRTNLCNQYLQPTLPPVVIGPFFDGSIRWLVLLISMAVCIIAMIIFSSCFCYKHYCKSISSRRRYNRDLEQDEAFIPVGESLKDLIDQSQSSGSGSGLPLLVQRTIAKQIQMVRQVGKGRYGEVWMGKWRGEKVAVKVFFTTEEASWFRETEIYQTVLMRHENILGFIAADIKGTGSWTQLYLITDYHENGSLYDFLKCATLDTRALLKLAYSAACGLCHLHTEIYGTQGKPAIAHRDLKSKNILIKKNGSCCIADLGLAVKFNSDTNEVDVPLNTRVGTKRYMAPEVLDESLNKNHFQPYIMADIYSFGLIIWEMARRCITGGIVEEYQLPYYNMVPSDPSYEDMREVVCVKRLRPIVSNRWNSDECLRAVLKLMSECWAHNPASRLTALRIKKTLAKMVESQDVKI
# protocol_notes: TR-FRET enzymatic ALK kinase assay, ALK3
Strictly below 2 µM in IC50: condition met. Otherwise: condition not met.

The examples below pair each entry with its known result.
>>> label("C[C@@H]1CNC[C@H](C)N1c1ccc(-c2cnc3c(-c4cc(C(F)(F)F)cc(S(C)(=O)=O)c4)cnn3c2)cc1 [Compound 193]")
"condition not met"
>>> label("NS(=O)(=O)c1ccc(-c2cnn3cc(-c4ccc(C5(O)CCNCC5)cc4)cnc23)c2ccccc12 [Compound 66]")
"condition not met"
>>> label("CC(O)c1cccc(-c2cnn3cc(-c4ccc(CCN5CCCC(O)C5)cc4)cnc23)c1 (centres unmarked) [Compound 150]")
"condition not met"
>>> label("CN1CCC(c2ccc(-c3cnc4c(-c5cccc(C(C)(C)O)c5)cnn4c3)cc2)CC1 [Compound 92]")
"condition met"
>>> label("C[C@@H]1CNC[C@H](C)N1c1ccc(-c2cnc3c(-c4ccc(CS(N)(=O)=O)cc4)cnn3c2)cc1 [Compound 71]")
"condition not met"
>>> label("CC[S+](=O)([O-])c1cccc(-c2cnn3cc(-c4ccc(N5[C@H](C)CNC[C@@H]5C)cc4)cnc23)c1 [Compound 104]")
"condition met"
>>> label("NC(c1cccc(-c2cnn3cc(-c4ccc(OC5(CN6CCOCC6)CC5)cc4)cnc23)c1)C(F)(F)F (centres unmarked) [Compound 181]")
"condition not met"
>>> label("C[S+](=O)([O-])c1cccc(-c2cnn3cc(-c4ccc(OCCN5CCCCC5)cc4)cnc23)c1 [Compound 109]")
"condition met"

Now look at this one.
I wonder whether CS(=O)(=O)c1cccc(-c2cnn3cc(-c4ccc(C5(N)CC5)cc4)cnc23)c1 [Compound 190] has IC50 below 2 µM. Can you tell?
condition not met

====

Reported pIC50 is given for each of the following compounds.
# experimental_target: ALK6 (Homo sapiens, UniProt O00238)
# Sequence (O00238 14-502): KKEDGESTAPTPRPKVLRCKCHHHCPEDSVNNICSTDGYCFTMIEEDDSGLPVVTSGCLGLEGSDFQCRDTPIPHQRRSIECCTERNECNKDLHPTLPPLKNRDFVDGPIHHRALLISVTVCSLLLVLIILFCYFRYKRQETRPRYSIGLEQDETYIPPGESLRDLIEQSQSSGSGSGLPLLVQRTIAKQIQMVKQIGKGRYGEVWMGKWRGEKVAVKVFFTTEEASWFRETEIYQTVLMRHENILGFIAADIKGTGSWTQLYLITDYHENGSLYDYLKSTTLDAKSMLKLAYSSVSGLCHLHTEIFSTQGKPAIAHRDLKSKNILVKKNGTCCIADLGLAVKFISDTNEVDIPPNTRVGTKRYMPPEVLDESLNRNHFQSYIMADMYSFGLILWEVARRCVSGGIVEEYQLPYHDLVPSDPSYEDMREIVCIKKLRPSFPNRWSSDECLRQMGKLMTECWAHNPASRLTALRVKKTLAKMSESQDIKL
# protocol_notes: TR-FRET enzymatic ALK kinase assay, ALK6
Interpret pIC50 as the negative base-10 log of the concentration measured in mol/L.

Use these answered entries as a reference point.
>>> numeric_value("NC(=O)c1cccc2c(-c3cnn4cc(-c5ccc(N6CCNCC6)cc5)cnc34)cccc12 [Compound 6]")
6.98
>>> numeric_value("C[C@@H]1CNC[C@H](C)N1c1ccc(-c2cnc3c(-c4ccc(-c5nn[nH]n5)c5ccccc45)cnn3c2)cc1 [Compound 26]")
5.72

// lookup pIC50 for CC(=O)c1cccc2c(-c3cnn4cc(-c5ccc(N6[C@H](C)CNC[C@@H]6C)cc5)cnc34)cccc12 [Compound 24]
6.52

====

Reported log10 of IC50 is given for each of the following molecules.
# experimental_target: ALK1 (Homo sapiens, UniProt P37023)
# Sequence (P37023 22-503): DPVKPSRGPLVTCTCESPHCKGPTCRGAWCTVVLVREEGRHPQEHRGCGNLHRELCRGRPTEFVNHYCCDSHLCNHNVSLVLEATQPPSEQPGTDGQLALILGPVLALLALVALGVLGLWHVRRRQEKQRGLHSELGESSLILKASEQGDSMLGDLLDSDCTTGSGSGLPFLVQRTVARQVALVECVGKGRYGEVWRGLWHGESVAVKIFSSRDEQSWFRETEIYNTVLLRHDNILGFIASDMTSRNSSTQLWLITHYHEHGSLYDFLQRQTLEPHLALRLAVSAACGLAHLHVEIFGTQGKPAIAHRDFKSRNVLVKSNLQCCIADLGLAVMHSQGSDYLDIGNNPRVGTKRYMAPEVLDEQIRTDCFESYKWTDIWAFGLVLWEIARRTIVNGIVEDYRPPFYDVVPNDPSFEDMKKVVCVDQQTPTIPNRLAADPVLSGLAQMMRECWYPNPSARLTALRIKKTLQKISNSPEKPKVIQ
# protocol_notes: TR-FRET enzymatic ALK kinase assay, ALK1
Scale: decimal log of IC50, IC50 in nM.

>>> numeric_value("C[C@H](O)c1cccc(-c2cnn3cc(-c4ccc(OC5(CN6CCC7(CC6)CNC7)CC5)cc4)cnc23)c1")
2.70
>>> numeric_value("C[S+](=O)([O-])c1cccc(-c2cnn3cc(-c4ccc(OCCN5CCCCC5)cc4)cnc23)c1")
2.59
>>> numeric_value("CC(O)c1cccc(-c2cnn3cc(-c4ccc(C(F)(F)CN5CCCCC5)cc4)cnc23)c1 (stereo not shown)")
3.68
>>> numeric_value("CC(O)c1cccc(-c2cnn3cc(-c4ccc(CN5CCCC5)cc4)cnc23)c1 (stereo not shown)")
1.51

// lookup log10 of IC50 for NS(=O)(=O)c1ccc(-c2cnn3cc(-c4ccc(OC5(CN6CCCC6)CC5)cc4)cnc23)c2ccccc12
2.23

// lookup log10 of IC50 for Cc1ccc(-c2cnn3cc(-c4ccc(N5[C@H](C)CNC[C@@H]5C)cc4)cnc23)cc1S(N)(=O)=O
2.90

// lookup log10 of IC50 for CC(O)c1cccc(-c2cnn3cc(-c4ccc(C5CCCNC5)cc4)cnc23)c1 (stereo not shown)
2.76

====

# experimental_target: UniProtKB Q04771
# Sequence (Q04771 21-509): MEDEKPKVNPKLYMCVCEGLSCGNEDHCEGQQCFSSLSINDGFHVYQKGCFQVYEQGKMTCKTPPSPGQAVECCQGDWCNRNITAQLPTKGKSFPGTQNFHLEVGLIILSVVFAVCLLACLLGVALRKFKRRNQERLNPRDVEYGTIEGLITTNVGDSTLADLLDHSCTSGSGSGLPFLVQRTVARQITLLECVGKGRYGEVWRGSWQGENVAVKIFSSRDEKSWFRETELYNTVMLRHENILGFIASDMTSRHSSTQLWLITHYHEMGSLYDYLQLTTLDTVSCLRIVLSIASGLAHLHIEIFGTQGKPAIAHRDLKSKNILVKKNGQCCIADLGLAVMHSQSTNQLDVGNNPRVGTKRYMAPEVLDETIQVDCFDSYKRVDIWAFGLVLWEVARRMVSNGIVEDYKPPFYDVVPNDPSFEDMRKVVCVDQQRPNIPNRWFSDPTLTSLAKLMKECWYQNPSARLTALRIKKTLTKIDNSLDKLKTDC
# protocol_notes: TR-FRET enzymatic ALK kinase assay, ALK2
outcome_measure: pIC50
Interpret pIC50 as the negative base-10 log of the concentration measured in mol/L.

>>> numeric_value("CC(C)(O)c1cccc(-c2cnn3cc(-c4ccc(CCN5CCCCC5)cc4)cnc23)c1")
7.37
>>> numeric_value("CC(C)(CN1CCCCC1)Oc1ccc(-c2cnc3c(-c4cccc(S(N)(=O)=O)c4)cnn3c2)cc1")
7.18
>>> numeric_value("NC(=O)c1ccc(-c2cnn3cc(-c4ccc(N5C[C@@H]6C[C@H]5CN6)cc4)cnc23)c2ccccc12")
8.15
>>> numeric_value("CC(=O)c1cccc2c(-c3cnn4cc(-c5ccc(N6[C@H](C)CNC[C@@H]6C)cc5)cnc34)cccc12")
7.52
>>> numeric_value("O=[S+]([O-])(c1cccc(-c2cnn3cc(-c4ccc(CCN5CCCCC5)cc4)cnc23)c1)C1CC1")
7.10

// lookup pIC50 for C[C@@H]1CNC[C@H](C)N1c1ccc(-c2cnc3c(-c4cccc(S(C)(=O)=O)c4)cnn3c2)cc1
7.92

// lookup pIC50 for CNC(=O)c1cccc2c(-c3cnn4cc(-c5ccc(N6CCNCC6)cc5)cnc34)cccc12
6.65

====

# experimental_target: ALK6 (Homo sapiens, UniProt O00238)
# protocol_notes: TR-FRET enzymatic ALK kinase assay, ALK6
outcome_measure: IC50

Use these answered entries as a reference point.
>>> result("C[C@@H]1CNC[C@H](C)N1c1ccc(-c2cnc3c(-c4cccc(CS(N)(=O)=O)c4)cnn3c2)cc1")
"> 10 µM"
>>> result("CC(O)c1cccc(-c2cnn3cc(-c4ccc(OCCN5CCCCC5)cc4)cnc23)c1 (stereo not shown)")
"> 10 µM"
>>> result("CC1(c2ccc(-c3cnc4c(-c5cccc(S(C)(=O)=O)c5)cnn4c3)cc2)CCNCC1")
"9 µM"
>>> result("CS(=O)(=O)c1cccc(-c2cnn3cc(-c4ccc(OC5(CN6CCC(O)CC6)CC5)cc4)cnc23)c1")
"> 10 µM"
>>> result("C[C@@H]1CNC[C@H](C)N1c1ccc(-c2cnc3c(-c4ccc(N)c5ccccc45)cnn3c2)cc1")
"2.5 µM"

// lookup IC50 for C[C@@H]1CNC[C@H](C)N1c1ccc(-c2cnc3c(-c4cccc(C(F)(F)F)c4)cnn3c2)cc1
> 10 µM

====

# experimental_target: ALK2 (Homo sapiens)
# Sequence (Q04771 21-509): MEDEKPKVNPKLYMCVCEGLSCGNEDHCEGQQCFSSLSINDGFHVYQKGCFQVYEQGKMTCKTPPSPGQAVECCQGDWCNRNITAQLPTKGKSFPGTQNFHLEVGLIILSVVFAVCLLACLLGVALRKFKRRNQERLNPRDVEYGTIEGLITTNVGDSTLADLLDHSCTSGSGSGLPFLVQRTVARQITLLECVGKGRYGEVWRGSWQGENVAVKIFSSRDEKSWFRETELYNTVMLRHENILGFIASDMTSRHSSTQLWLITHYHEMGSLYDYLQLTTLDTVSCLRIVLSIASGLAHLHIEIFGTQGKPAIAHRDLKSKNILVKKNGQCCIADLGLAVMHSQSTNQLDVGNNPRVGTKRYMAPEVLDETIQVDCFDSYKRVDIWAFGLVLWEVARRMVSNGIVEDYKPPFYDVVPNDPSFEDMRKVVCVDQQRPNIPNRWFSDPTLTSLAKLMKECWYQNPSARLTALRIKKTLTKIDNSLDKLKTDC
# protocol_notes: TR-FRET enzymatic ALK kinase assay, ALK2
outcome_measure: pIC50
Interpret pIC50 as the negative base-10 log of the concentration measured in mol/L.

Use these answered entries as a reference point.
>>> numeric_value("C[C@@H]1CNC[C@H](C)N1c1ccc(-c2cnc3c(-c4cccc(C(N)=O)c4)cnn3c2)cc1")
7.48
>>> numeric_value("NC(=O)c1ccc(-c2cnn3cc(-c4ccc(N5CCNCC5)cc4)cnc23)c2ccccc12")
8.35
>>> numeric_value("CS(=O)(=O)c1cccc(-c2cnn3cc(-c4ccc(OC5(CN6CCCC6)CC5)cc4)cnc23)c1")
7.48

// lookup pIC50 for NC1(c2ccc(-c3cnc4c(-c5ccc(S(N)(=O)=O)c6ccccc56)cnn4c3)cc2)CNC1
7.16

// lookup pIC50 for CS(=O)(=O)c1cccc(-c2cnn3cc(-c4ccc(C5CCNC5)cc4)cnc23)c1 (stereo not shown)
7.20

// lookup pIC50 for CS(=O)(=O)c1cccc(-c2cnn3cc(-c4ccc(OC5(CN6CCCCC6)CC5)cc4)cnc23)c1
7.35

// lookup pIC50 for NS(=O)(=O)c1ccc(-c2cnn3cc(-c4ccc(CCN5CCCCC5)cc4)cnc23)c2ccccc12
7.03
